# PROTOCOL_NOTES: Dog PK study #4 (Compound A PO daily 14 days, 1/3/10 mg/kg; toxicokinetics, platelet counts)
# Format: in vivo, beagle dogs
# CONDITION_SET: both sexes, beagle, dog, plasma, oral; after daily administration for 14 days, 10 mg/kg, Pooled Mean, 0.5 h
QUANTITY_KIND: concentration at 0.5 h (ng/mL)
Your answer should be a plain number; it is taken to be in ng/mL.

Ask | Fill in concentration at 0.5 h for record Cn1cc(-c2ccccc2)c(-c2cn(C)c(=O)c3[nH]c(-c4cnn(C(F)(F)F)c4)cc23)cc1=O [Compound A]
Reply | 1070
